Just for reference, paper PMC5540273 is where these values come from.

Tested on: PIK3CD
Details: concentration: 1 μM, replicates: in singlicate; n = 1;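 note: KINOMEscan kinase panel screen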
Item-by-item account of %Inh
Please state the figure in %; there is no need to write the unit.

-- ask Supply %Inh value. Item: `Cl.c1ccc(Cn2ncc3cc(Nc4ncnc5ccccc45)ccc32)cc1`
-- reply 0

-- ask Supply %Inh value. Item: `Nc1nc(-c2ccc3c(N)n[nH]c3c2)cc(N2CCCCC2)n1`
-- reply 0

-- ask Supply %Inh value. Item: `C[C@@H]1CCN(C(=O)CO)C[C@@H]1N(C)c1ncnc2[nH]ccc12`
-- reply 5

-- ask Supply %Inh value. Item: `COc1ccc(-c2oc3ncnc(N)c3c2-c2ccc(OC)cc2)cc1`
-- reply 4

Continuing:
-- ask Supply %Inh value. Item: `Fc1cccc(COc2ccc(Nc3ncnc4nn5ccccc5c34)cc2Cl)c1`
-- reply 0

-- ask Supply %Inh value. Item: `Clc1ccc(-c2cc(-c3c[nH]nc3-c3ccccn3)ccn2)cc1`
-- reply 0

-- ask Supply %Inh value. Item: `CCc1nc(-c2cccc(C)c2)c(-c2ccnc(NC(=O)c3ccccc3)c2)s1`
-- reply 44

-- ask Supply %Inh value. Item: `Cn1ccc2ncnc(Oc3ccc(NC(=O)Nc4cccnc4)c(Cl)c3)c21`
-- reply 8

-- ask Supply %Inh value. Item: `Nc1n[nH]c2nnc(-c3ccccc3)cc12`
-- reply 0

====

Tested on: DAPK2
Settings: concentration: 1 μM, replicates: in singlicate; n = 1
observed.property: %Inh (%)
Please state the figure in %; there is no need to write the unit.

// worked examples, %Inh included
-- ask Supply %Inh value. Item: O=C(c1ccc(-c2cc(-c3c[nH]nc3-c3ccccn3)ccn2)cc1)N1CCCC1 [GW792479]
-- reply 33

-- ask Supply %Inh value. Item: Cc1ccc(C)c(NC(=O)NCCNc2ccnc(Nc3ccc(F)cc3)n2)c1 [GSK1379878]
-- reply 0

-- ask Supply %Inh value. Item: CCc1nc(-c2cccc(N(C)S(=O)(=O)c3ccccc3)c2)c(-c2ccnc(Nc3ccc(N4CCN(C(C)=O)CC4)nc3)n2)s1 [GSK1645895]
-- reply 0

-- ask Supply %Inh value. Item: Fc1cccc(COc2ccc(Nc3ncnc4nn5ccccc5c34)cc2Cl)c1 [GW689066]
-- reply 0

-- ask Supply %Inh value. Item: CC(C)(C)c1ccc(-n2cnc3c(N)ncnc32)cc1 [SKF-97263]
-- reply 0

Continuing:
-- ask Supply %Inh value. Item: Cn1cc(-c2ccc3c(c2)CCN3C(=O)Cc2cccc(C(F)(F)F)c2)c2c(N)ncnc21 [GSK2606414]
-- reply 0

-- ask Supply %Inh value. Item: CCn1c(-c2ccncc2)nc2cnccc21 [SB-735216]
-- reply 0

-- ask Supply %Inh value. Item: `Cn1ccc2ncnc(Nc3ccc(Oc4cccc(Cl)c4)c(Cl)c3)c21`
-- reply 0

-- ask Supply %Inh value. Item: CNc1nccc(-c2c(-c3ccc(F)cc3)ncn2CCCN2CCOCC2)n1 [SB-222516]
-- reply 0

-- ask Supply %Inh value. Item: `Cn1ccc2ncnc(Oc3ccc(NC(=O)Nc4cccnc4)c(Cl)c3)c21`
-- reply 0

-- ask Supply %Inh value. Item: Cc1ccc(O)cc1Nc1cc(C(F)(F)F)nc2ccc(-c3ccncc3)cc12 [GW630823]
-- reply 17

-- ask Supply %Inh value. Item: Cc1ccc(NC(=O)c2cccc(C#N)c2)cc1-c1ccc(C(=O)Nc2ccncc2)cc1 [GSK1398463]
-- reply 0

-- ask Supply %Inh value. Item: COc1ccc(Nc2nccc(N3CCC(NC(=O)Nc4ccc5c(c4)OCO5)C3)n2)cc1 (centres unmarked) [GSK1379745]
-- reply 14

-- ask Supply %Inh value. Item: Nc1nc(-c2ccc3c(N)n[nH]c3c2)cc(N2CCC[C@@H](C(=O)Nc3ccccc3)C2)n1.O=C(O)C(F)(F)F.O=C(O)C(F)(F)F [GSK2288359]
-- reply 0

-- ask Supply %Inh value. Item: O=C(Nc1n[nH]c2nc(-c3ccco3)c(Br)cc12)c1ccc(CN2CCCC2)cc1.O=C(O)[C@H](O)[C@@H](O)C(=O)O [SB-742352]
-- reply 0

-- ask Supply %Inh value. Item: FC(F)(F)c1ccc(-c2nn3ncccc3c2-c2ccnc(Nc3cccc(C(F)(F)F)c3)n2)cc1 [GW828205]
-- reply 0

-- ask Supply %Inh value. Item: Clc1ccc(-c2cc(-c3c[nH]nc3-c3ccccn3)ccn2)cc1 [GW681251]
-- reply 0

-- ask Supply %Inh value. Item: CC(C)(C)OC(=O)NC1CCCN(c2cc(-c3ccc4c(N)n[nH]c4c3)nc(N)n2)C1 (centres unmarked) [GSK2286096]
-- reply 0

-- ask Supply %Inh value. Item: CC(C)N1CCC(n2cnc(-c3ccc(F)cc3)c2-c2ccnc(N)n2)CC1 [SB-223132]
-- reply 0

-- ask Supply %Inh value. Item: `Fc1cccc(COc2ccc(Nc3ncnc4cc[nH]c34)cc2Cl)c1`
-- reply 45

-- ask Supply %Inh value. Item: `Clc1cc(Nc2ncnc3cc[nH]c23)ccc1OCc1ccccn1`
-- reply 0
